Molecular target: human PPARalpha (Homo sapiens, UniProt Q07869)
Construct: human PPARalpha receptor (amino acids S167-Y468); plasmid pcDNA3
Sequence (Q07869 167-468): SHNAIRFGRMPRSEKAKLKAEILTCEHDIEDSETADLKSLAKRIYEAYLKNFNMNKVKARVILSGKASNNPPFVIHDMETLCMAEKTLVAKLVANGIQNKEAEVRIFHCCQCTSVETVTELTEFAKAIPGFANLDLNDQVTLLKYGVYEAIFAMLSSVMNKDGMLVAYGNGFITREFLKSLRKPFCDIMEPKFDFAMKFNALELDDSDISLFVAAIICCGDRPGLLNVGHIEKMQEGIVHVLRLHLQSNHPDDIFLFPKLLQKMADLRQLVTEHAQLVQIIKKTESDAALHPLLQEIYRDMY
Experiment: Cellular PPARalpha assay (HEK PPARalpha reporter cell line, luciferase)
Conditions: 24 h incubation
measurement-type: EC50 (nM)

compound: Cc1nc([C@H]2CC[C@H](C(F)(F)F)CC2)sc1C(OCc1ccc(-c2noc(=O)[nH]2)c(C2CC2)c1)C(F)(F)F (stereo partly shown) [Example 39]
study-system: human PPARalpha (Homo sapiens, UniProt Q07869)
measurement-type: EC50
cmp: =
observed-value: 5440

compound: CCC(Oc1ccc(-c2noc(=O)[nH]2)c(F)c1)c1sc([C@H]2CC[C@H](C(F)(F)F)CC2)nc1C (stereo partly shown) [Example 66]
study-system: human PPARalpha (Homo sapiens, UniProt Q07869)
measurement-type: EC50
cmp: =
observed-value: 304

compound: CCC(Oc1cc(OC)c(-c2noc(=O)[nH]2)cc1F)c1sc([C@H]2CC[C@H](C(F)(F)F)CC2)nc1C (stereo partly shown) [Example 51]
study-system: human PPARalpha (Homo sapiens, UniProt Q07869)
measurement-type: EC50
cmp: =
observed-value: 335

compound: Cc1nc(-c2ccc(C(F)(F)F)nc2)sc1C(OCc1ccc(-c2noc(=O)[nH]2)c(F)c1)C(F)(F)F (stereo not shown) [Example 31]
study-system: human PPARalpha (Homo sapiens, UniProt Q07869)
measurement-type: EC50
cmp: >
observed-value: 33000

* * *

Target: human PPARdelta (Homo sapiens, UniProt Q03181)
Construct: human PPARdelta receptor (amino acids S139-Y441); plasmid pcDNA3
Sequence (Q03181 139-441): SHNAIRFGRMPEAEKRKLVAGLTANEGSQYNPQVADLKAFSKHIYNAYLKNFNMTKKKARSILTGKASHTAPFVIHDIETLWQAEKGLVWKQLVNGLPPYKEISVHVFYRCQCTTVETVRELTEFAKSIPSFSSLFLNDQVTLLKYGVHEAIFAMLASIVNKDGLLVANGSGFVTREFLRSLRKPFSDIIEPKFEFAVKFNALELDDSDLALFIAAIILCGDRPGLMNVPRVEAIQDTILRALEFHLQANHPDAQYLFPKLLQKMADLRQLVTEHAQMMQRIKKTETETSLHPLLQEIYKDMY
Assay: Cellular PPARdelta assay (HEK PPARdelta reporter cell line, luciferase)
Settings: 24 h incubation
Measured EC50 accompanies every entry in the list below.

molecule: COCc1nc([C@H]2CC[C@H](C(F)(F)F)CC2)oc1COc1ccc(-c2noc(=O)[nH]2)c(Cl)c1 [Example 18a]
EC50 / nM: 40
--
molecule: CCC(Oc1ccc(-c2noc(=O)[nH]2)c(OC(F)F)c1)c1sc([C@H]2CC[C@H](C(F)(F)F)CC2)nc1CN1CCC(C(F)(F)F)CC1 (stereo partly shown) [Example 61]
EC50 / nM: 7
--
molecule: Cc1nc(-c2cccc3cccnc23)sc1COc1ccc(-c2nc(=O)o[nH]2)c(Cl)c1 [Example 46]
EC50 / nM: 7390
--
molecule: Cc1nc([C@H]2CC[C@H](C(F)(F)F)CC2)sc1C(OCc1ccc(-c2noc(=O)[nH]2)c(C2CC2)c1)C(F)(F)F (stereo partly shown) [Example 39]
EC50 / nM: 86
--
molecule: Cc1nc(C2CCCCC2)sc1COc1ccc(-c2noc(=O)[nH]2)c(Cl)c1 [Example 5]
EC50 / nM: 230
--
molecule: O=c1[nH]c(-c2ccc(OCc3sc(-c4ccc(C(F)(F)F)nc4)nc3CCCOCc3ccccc3)cc2Cl)no1 [Example 25]
EC50 / nM: 0.3
--
molecule: COCc1nc(CCC2CCCCC2)sc1COc1ccc(-c2noc(=O)[nH]2)c(Cl)c1 [Example 10]
EC50 / nM: 70

Origin of measurements: patent US7709481B2
